# Test Target: pseudo-kinase domain (JH2, amino-acids 536-812) of human Wild Type JAK2 (Homo sapiens, UniProt O60674, F794H/W659A/W777A)
# Construct: pseudo-kinase domain (JH2, amino-acids 536-812 with 3 surface mutations W659A, W777A, F794H); His (C)
# Sequence (O60674 536-812 W659A/W777A/F794H): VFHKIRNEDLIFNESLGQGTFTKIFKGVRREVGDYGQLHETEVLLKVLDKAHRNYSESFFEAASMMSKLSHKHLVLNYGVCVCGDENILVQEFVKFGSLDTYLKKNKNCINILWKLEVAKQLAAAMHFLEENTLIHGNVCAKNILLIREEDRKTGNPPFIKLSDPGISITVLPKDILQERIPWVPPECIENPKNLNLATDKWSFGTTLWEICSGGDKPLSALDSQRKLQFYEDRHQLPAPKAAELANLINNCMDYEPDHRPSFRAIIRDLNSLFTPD
# Test: JAK2 LanthaScreen JH2-WT Binding Assay
# Stated Conditions: 50 nM tracer, read-out: JH2BIND_WT IC50
pIC50: −log10 of the molar value.

Compound: [2H]C([2H])([2H])n1c(=O)n2c3c4c(c(-c5cn(C)nc5OC)[nH]c4ncc31)-c1ccc(cc1)OC/C=C/C[C@]1(NC(=O)C3CC3)CC[C@@H]2CC1 [Example 1]
pIC50: ≥ 8.00
//
Compound: [2H]C([2H])([2H])n1c(=O)n2c3c4c(c(-c5cnn(CC(F)F)c5)[nH]c4ncc31)-c1ccc(cc1)OCC/C=C/C[C@]1(NC(=O)[C@H]3C[C@H]3F)CC[C@@H]2CC1 [Example 11]
pIC50: ≥ 8.00
//
Compound: [2H]C([2H])([2H])n1c(=O)n2c3c4c(c(-c5cn(C)nc5OC)[nH]c4ncc31)-c1ccc(cc1)C1(/C=C/C[C@]3(NC(=O)C4CC4)CC[C@@H]2CC3)CC1 [Example 6]
pIC50: ≥ 8.00

* * *

# Test Target: pseudo-kinase domain (JH2, amino-acids 536-812) of human V617F mutant JAK2 (Homo sapiens, UniProt O60674, F794H/V617F/W659A/W777A)
# Construct: pseudo-kinase domain (JH2, amino-acids 536-812 with 3 surface mutations W659A, W777A, F794H); His (C)
# Sequence (O60674 536-812 V617F/W659A/W777A/F794H): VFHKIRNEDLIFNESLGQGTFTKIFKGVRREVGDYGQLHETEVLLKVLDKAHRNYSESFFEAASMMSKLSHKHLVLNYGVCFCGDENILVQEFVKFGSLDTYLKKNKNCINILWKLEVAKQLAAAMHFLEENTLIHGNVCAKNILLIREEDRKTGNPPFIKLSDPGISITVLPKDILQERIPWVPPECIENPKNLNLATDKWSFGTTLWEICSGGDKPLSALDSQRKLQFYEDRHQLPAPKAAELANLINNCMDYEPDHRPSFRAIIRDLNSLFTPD
# Test: JAK2 LanthaScreen JH2-V617F Binding Assay
# Stated Conditions: 50 nM tracer, read-out: JH2BINDING—V617F IC50
# IC50 per entry

Molecule: [2H]C([2H])([2H])n1c(=O)n2c3c4c(c(-c5cn(C)nc5OC)[nH]c4ncc31)-c1ccc(cc1)CNCC[C@]1(NC(=O)C3CC3)CC[C@@H]2CC1 [Example 7]
IC50: 10 to 100 nM
--
Molecule: [2H]C([2H])([2H])n1c(=O)n2c3c4c(c(-c5cn(C)nc5OC)[nH]c4ncc31)-c1ccc(cc1)OCC/C=C/C[C@]1(NC(=O)C3CC3)CC[C@@H]2CC1 [Example 2]
IC50: ≤ 10 nM
--
Molecule: [2H]C([2H])([2H])n1c(=O)n2c3c4c(c(-c5cnn(CCOC)c5)[nH]c4ncc31)-c1ccc(cc1)OCC/C=C/C[C@]1(NC(=O)[C@H]3C[C@H]3F)CC[C@@H]2CC1 [Example 8]
IC50: ≤ 10 nM
--
Molecule: [2H]C([2H])([2H])n1c(=O)n2c3c4c(c(-c5cn(C)nc5OC)[nH]c4ncc31)-c1ccc(cc1)OCCC/C=C/C[C@]1(NC(=O)C3CC3)CC[C@@H]2CC1 [Example 3]
IC50: ≤ 10 nM
--
Molecule: [2H]C([2H])([2H])n1c(=O)n2c3c4c(c(-c5cn(C)nc5OC)[nH]c4ncc31)-c1ccc(cc1)C1(/C=C/C[C@]3(NC(=O)C4CC4)CC[C@@H]2CC3)CC1 [Example 6]
IC50: ≤ 10 nM

* * *

# Test Target: catalytic domain (JH1, amino acids 826-1132) of human JAK2 (Homo sapiens, UniProt O60674)
# Construct: catalytic domain (JH1, amino acids 826-1132) of human JAK2; FLAG (N)
# Sequence (O60674 826-1132): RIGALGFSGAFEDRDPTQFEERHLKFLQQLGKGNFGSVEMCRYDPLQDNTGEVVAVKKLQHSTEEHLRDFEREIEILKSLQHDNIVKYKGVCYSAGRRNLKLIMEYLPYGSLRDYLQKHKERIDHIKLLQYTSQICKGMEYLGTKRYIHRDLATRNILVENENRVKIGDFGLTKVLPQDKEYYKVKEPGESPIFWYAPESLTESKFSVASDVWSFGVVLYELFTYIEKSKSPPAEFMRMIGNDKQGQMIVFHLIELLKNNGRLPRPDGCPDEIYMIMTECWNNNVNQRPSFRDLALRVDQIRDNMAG
# Test: JAK2 LanthaScreen JH1 binding assay
# Stated Conditions: JAK2 JH1, 50 nM tracer; read-out: JH1BIND IC50
pIC50: −log10 of the molar value.
# pIC50 per entry

Molecule: [2H]C([2H])([2H])n1c(=O)n2c3c4c(c(-c5cn(C(C)C)nc5F)[nH]c4ncc31)-c1ccc(cc1)OCC/C=C/C[C@]1(NC(=O)[C@H]3C[C@H]3F)CC[C@@H]2CC1
Test Target: catalytic domain (JH1, amino acids 826-1132) of human JAK2 (Homo sapiens, UniProt O60674)
pIC50: < 6.00
--
Molecule: [2H]C([2H])([2H])n1c(=O)n2c3c4c(c(-c5cnn(C)c5)[nH]c4ncc31)-c1ccc(cc1)OCC/C=C/C[C@]1(NC(=O)[C@H]3C[C@H]3F)CC[C@@H]2CC1
Test Target: catalytic domain (JH1, amino acids 826-1132) of human JAK2 (Homo sapiens, UniProt O60674)
pIC50: 6.00 to 6.30
--
Molecule: [2H]C([2H])([2H])n1c(=O)n2c3c4c(c(-c5cn(CC)nc5F)[nH]c4ncc31)-c1ccc(cc1)OCCC(O)CC[C@]1(NC(=O)[C@H]3C[C@H]3F)CC[C@@H]2CC1 (stereo partly drawn)
Test Target: catalytic domain (JH1, amino acids 826-1132) of human JAK2 (Homo sapiens, UniProt O60674)
pIC50: 6.00 to 6.30

* * *

# Test Target: catalytic domain (JH1, amino acids 826-1132) of human JAK2 (Homo sapiens, UniProt O60674)
# Construct: catalytic domain (JH1, amino acids 826-1132) of human JAK2; FLAG (N)
# Test: JAK2 LanthaScreen JH1 binding assay
# Stated Conditions: JAK2 JH1, 50 nM tracer; read-out: JH1BIND IC50
pIC50: −log10 of the molar value.
Measured Property: pIC50

Compound: [2H]C([2H])([2H])n1c(=O)n2c3c4c(c(-c5cn(C)nc5OC)[nH]c4ncc31)-c1ccc(cc1)C1(/C=C/C[C@]3(NC(=O)C4CC4)CC[C@@H]2CC3)CC1 [Example 6]
Measured Property: pIC50
Result: < 6.00

Compound: [2H]C([2H])([2H])n1c(=O)n2c3c4c(c(-c5cn(C)nc5OC)[nH]c4ncc31)-c1ccc(cc1)CNCC[C@]1(NC(=O)C3CC3)CC[C@@H]2CC1 [Example 7]
Measured Property: pIC50
Result: < 6.00

Compound: [2H]C([2H])([2H])n1c(=O)n2c3c4c(c(-c5cn(C)nc5OC)[nH]c4ncc31)-c1ccc(cc1)OC/C=C/C[C@]1(NC(=O)C3CC3)CC[C@@H]2CC1 [Example 1]
Measured Property: pIC50
Result: < 6.00

Compound: [2H]C([2H])([2H])n1c(=O)n2c3c4c(c(-c5cn(C)nc5OC)[nH]c4ncc31)-c1ccc(cc1)OCCC/C=C/C[C@]1(NC(=O)C3CC3)CC[C@@H]2CC1 [Example 3]
Measured Property: pIC50
Result: < 6.00

Compound: [2H]C([2H])([2H])n1c(=O)n2c3c4c(c(-c5cn(C)nc5OC)[nH]c4ncc31)-c1ccc(cc1)OCC/C=C/C[C@]1(NC(=O)C3CC3)CC[C@@H]2CC1 [Example 2]
Measured Property: pIC50
Result: < 6.00

Compound: [2H]C([2H])([2H])n1c(=O)n2c3c4c(c(-c5cnn(CCOC)c5)[nH]c4ncc31)-c1ccc(cc1)OCC/C=C/C[C@]1(NC(=O)[C@H]3C[C@H]3F)CC[C@@H]2CC1 [Example 8]
Measured Property: pIC50
Result: 6.00 to 6.30

Compound: [2H]C([2H])([2H])n1c(=O)n2c3c4c(c(-c5cnn(CC(F)F)c5)[nH]c4ncc31)-c1ccc(cc1)OCC/C=C/C[C@]1(NC(=O)[C@H]3C[C@H]3F)CC[C@@H]2CC1 [Example 11]
Measured Property: pIC50
Result: 6.00 to 6.30

* * *

# Test Target: pseudo-kinase domain (JH2, amino-acids 536-812) of human V617F mutant JAK2 (Homo sapiens, UniProt O60674, F794H/V617F/W659A/W777A)
# Construct: pseudo-kinase domain (JH2, amino-acids 536-812 with 3 surface mutations W659A, W777A, F794H); His (C)
# Test: JAK2 LanthaScreen JH2-V617F Binding Assay
# Stated Conditions: 50 nM tracer, read-out: JH2BINDING—V617F IC50
Measured Property: IC50

Compound Smiles: [2H]C([2H])([2H])n1c(=O)n2c3c4c(c(-c5cn(C)nc5OC)[nH]c4ncc31)-c1ccc(cc1)OC/C=C/C[C@]1(NC(=O)C3CC3)CC[C@@H]2CC1
Result: ≤ 10 nM
--
Compound Smiles: [2H]C([2H])([2H])n1c(=O)n2c3c4c(c(-c5cn(C(C)C)nc5F)[nH]c4ncc31)-c1ccc(cc1)OCC/C=C/C[C@]1(NC(=O)[C@H]3C[C@H]3F)CC[C@@H]2CC1
Result: ≤ 10 nM
--
Compound Smiles: [2H]C([2H])([2H])n1c(=O)n2c3c4c(c(-c5cnn(C)c5)[nH]c4ncc31)-c1ccc(cc1)OCC/C=C/C[C@]1(NC(=O)[C@H]3C[C@H]3F)CC[C@@H]2CC1
Result: ≤ 10 nM

* * *

# Test Target: catalytic domain (JH1, amino acids 808-1132) of human JAK2 (Homo sapiens)
# Construct: catalytic domain (JH1, amino acids 808-1132) of human JAK2; His (N)
# Sequence (O60674 808-1132): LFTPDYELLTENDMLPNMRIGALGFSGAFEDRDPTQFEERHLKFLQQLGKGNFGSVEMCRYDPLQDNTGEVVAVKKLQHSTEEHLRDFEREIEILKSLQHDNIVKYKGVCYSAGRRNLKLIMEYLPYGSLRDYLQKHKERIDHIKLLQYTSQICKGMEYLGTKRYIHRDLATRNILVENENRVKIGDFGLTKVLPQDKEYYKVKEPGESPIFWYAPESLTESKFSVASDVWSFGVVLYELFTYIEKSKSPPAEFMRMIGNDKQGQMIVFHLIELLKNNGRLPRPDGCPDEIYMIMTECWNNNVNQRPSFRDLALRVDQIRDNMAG
# Test: JAK2 HTRF Enzyme Activity Assay
# Stated Conditions: ATP 30 μM; read-out: ENZ 30UMATP IC50
pIC50: −log10 of the molar value.
# pIC50 per entry
Measured Property: pIC50

Compound: [2H]C([2H])([2H])n1c(=O)n2c3c4c(c(-c5cnn(C)c5)[nH]c4ncc31)-c1ccc(cc1)OCC/C=C/C[C@]1(NC(=O)[C@H]3C[C@H]3F)CC[C@@H]2CC1 [Example 10]
Test Target: catalytic domain (JH1, amino acids 808-1132) of human JAK2 (Homo sapiens)
Result: 6.00 to 6.30
--
Compound: [2H]C([2H])([2H])n1c(=O)n2c3c4c(c(-c5cn(C)nc5OC)[nH]c4ncc31)-c1ccc(cc1)CNCC[C@]1(NC(=O)C3CC3)CC[C@@H]2CC1 [Example 7]
Test Target: catalytic domain (JH1, amino acids 808-1132) of human JAK2 (Homo sapiens)
Result: < 6.00
--
Compound: [2H]C([2H])([2H])n1c(=O)n2c3c4c(c(-c5cn(C)nc5OC)[nH]c4ncc31)-c1ccc(cc1)OCC/C=C/C[C@]1(NC(=O)C3CC3)CC[C@@H]2CC1 [Example 2]
Test Target: catalytic domain (JH1, amino acids 808-1132) of human JAK2 (Homo sapiens)
Result: < 6.00
